Tested on: NCI-H460
TEST_DETAILS: NCI tumour cell line growth inhibition, 48 h
Calls of active or inactive are those of the source. Rule as the data show it: active = GI50 up to about 1.1 µM and inactive = higher.
Write down one outcome, taken from y for active, n for inactive

What did this assay record as the result for Cc1nnc(CC#N)n1NC(=O)CC#N ?
n

What did this assay record as the result for COc1ccc2c(c1)[n+]([O-])c(C(N)=O)c(N)[n+]2[O-] ?
n

What did this assay record as the result for N#Cc1c(NN)nc(NN)c(C#N)c1-c1ccccc1 ?
n

What did this assay record as the result for O=c1[nH]nc(Cc2ccccc2)n1N=C1CCCCC1 ?
n

What did this assay record as the result for CCn1c(O)c(C(=O)Nc2cccs2)c(=O)n(CC)c1=S ?
n

What did this assay record as the result for C=CCn1c(=O)c(C(=O)NC(=O)OCC)cn(C2CCCCC2)c1=O ?
n

What did this assay record as the result for COc1cc2cc(C(=O)N3CC(CCl)c4ccc([N+](C)(C)Cc5ccc([N+](=O)[O-])cc5)cc43)[nH]c2c(OC)c1OC (configuration not stated) ?
n

What did this assay record as the result for CCCCCCC(CCl)c1sc(-c2csc(CCNC(=O)OC(C)(C)C)n2)nc1C(=O)OC (configuration not stated) ?
n

What did this assay record as the result for C[N+](C)(C)C1(C(=O)[O-])CC1 ?
n

====

System: DU-145
TEST_DETAILS: NCI tumour cell line growth inhibition, 48 h
The source made the active and inactive calls. Rule as the data show it: active = GI50 up to about 1.1 µM and inactive = higher.
Hi there, I'd appreciate the recorded GI50 for every entry that follows.

For the 5 compounds below, give their GI50 values.
1. O=[N+]([O-])C(=C(Nc1ccccc1)Nc1ccccc1)/C(Cl)=C(\Cl)Br
2. C=C1C(=O)O[C@@H]2/C=C(\C)CC/C=C(\C)CC[C@@]12O
3. O=C1OC(C2=CC(=O)c3ccccc3C2=O)C(Cl)=C1Cl (stereo not given)
4. c1cc(C[S+]2CCCC2)oc1C[S+]1CCCC1
5. c1ccc2/c3[nH]/c(c2c1)=N\c1ccc(cc1)-c1nc2ccc(cc2o1)/N=c1/[nH]/c(c2ccccc12)=N/c1ccc2nc(oc2c1)-c1ccc(cc1)\N=3

1: 16.5 µM (inactive); 2: 1.97 µM (inactive); 3: 39.7 µM (inactive); 4: > 100 µM (inactive); 5: 23.2 µM (inactive)

====

Test system: EKVX
TEST_DETAILS: NCI tumour cell line growth inhibition, 48 h
Active and inactive are the calls of the source. No stated cut-off is given here; in the data, active = GI50 up to about 1.1 µM and inactive = higher.
Hi there, I'd appreciate the recorded GI50 for every entry that follows.

Worked set:
• O=C1CS(=O)(=O)C(c2cccc(Oc3ccccc3)c2)N1C1CC1 (stereo unspecified) = 29 µM (inactive)
• CCSc1[nH]c(Nc2nc(-c3ccccc3)n(-c3ccccc3)n2)c(C(N)=O)c1C(N)=O = > 10 µM (inactive)
• Cc1ccc2c(c1)nc1n2C(c2c(F)cccc2F)SC1 (stereo unspecified) = 30.8 µM (inactive)
• COC(=O)C(C(=O)C(=O)Nc1ccc([N+](=O)[O-])cc1[N+](=O)[O-])c1nc2ccc(Cl)cc2nc1O (stereo unspecified) = 40.8 µM (inactive)
• O=C1NC2OC(CO)C(O)C(O)C2O1 (stereo unspecified) = > 100 µM (inactive)
• CCCCN(CCCC)CCC(O)c1cc(-c2ccc(C(F)(F)F)cc2)nc(-c2ccc(C(F)(F)F)cc2)c1 (stereo unspecified) = > 100 µM (inactive)
• CSC1=C(SC)C(=O)c2cn(C)c(=O)cc2C1=O = 18.3 µM (inactive)
• O=NN(CCCl)C(=O)Nc1ccc(Cl)c(Cl)c1 = 46.9 µM (inactive)
• O=C(/C=C/c1ccccc1)CCN1CCOCC1 = 18.5 µM (inactive)
• Cc1ccc(C(=O)O/N=C2/CCCCC2CN(C)C)cc1 (stereo unspecified) = > 100 µM (inactive)

Turning now to a further compound:
What does the record list as GI50 for NC(=O)C1C(=O)Oc2cccnc21 (stereo unspecified) ?
> 100 µM (inactive)
